experiment: Toxicokinetics, 26-week rat study; type: in vivo, Sprague Dawley rats; conditions: both sexes, Sprague Dawley, rat, plasma, po; 100 mg/kg; mean of male and female rats
observation_type: AUC(0-inf)
Number plus unit, in that order.

// AUC(0-inf) value for CCC(C)(C)C(=O)[O-].[Na+] [DMB, Sodium 2,2-dimethylbutyrate] : 278 µg·h/mL

###

test: Toxicokinetics, 26-week rat study; assay type: in vivo, Sprague Dawley rats; details: both sexes, Sprague Dawley, rat, plasma, po; 500 mg/kg (NOAEL); mean of male and female rats
observation_type: AUC(0-inf) (µg·h/mL)
Give bare numbers, in µg·h/mL.

Input CCC(C)(C)C(=O)[O-].[Na+] [DMB, Sodium 2,2-dimethylbutyrate] . Output AUC(0-inf): 3440

###

test: Phase 1 repeat-dose clinical study, pharmacokinetics; format: in vivo, human; settings: human, plasma, oral; doses of 10 and 15 mg/kg; read-out: mean T1/2 (converted)
observation_type: half-life (h)
Give bare numbers, in h.

What the record says about CCC(C)(C)C(=O)[O-].[Na+] [DMB, Sodium 2,2-dimethylbutyrate] : half-life is 11

###

Test: clinical
Settings: human, in vivo, 5 mg/kg
Method: The first clinical study was a phase 1, double-blind, placebo-controlled, single dose study of the tolerability, safety and pharmacokinetics of DMB in 32 healthy volunteers. Healthy, fasting adult volunteers received single oral doses of DMB or placebo capsules at one of four dose levels (2 mg/kg, 5 mg/kg, 10 mg/kg and 20 mg/kg). Six subjects received study drug (24 subjects total) and 2 subjects received placebo at each dose level. […]
observation_type: AUC (ng·h/mL)
Give bare numbers, in ng·h/mL.

Record CCC(C)(C)C(=O)[O-].[Na+] [DMB, Sodium 2,2-dimethylbutyrate] . Reported AUC: 38300

###

Experiment: Phase 1 repeat-dose clinical study, pharmacokinetics
Format: in vivo, human
Conditions: human, plasma, oral, 5 mg/kg, Day 0, without iron; read-out: Average Cmax
Procedure: DMB was evaluated in a phase 1, placebo-controlled, randomized, repeat dose clinical study that evaluated tolerability, safety, and pharmacokinetics in healthy volunteers. A total of 41 subjects (31 receiving active drug and 10 receiving placebo) completed 14 consecutive days of study medication at daily dose levels of 5, 10 or 15 mg/kg (10 subjects received placebo). […] The subjects were monitored weekly for 6 weeks. […]
observation_type: Cmax
Please provide the amount together with its unit, number first.

For CCC(C)(C)C(=O)[O-].[Na+] [DMB, Sodium 2,2-dimethylbutyrate] the molecule record lists Cmax as 17700 ng/mL

###

assay: in vivo; parameters: species or system baboon; conditions: female, monkey, po, 100 mg/kg
observation_type: bioavailability

Briefly, bioavailability measured for CCC(C)(C)C(=O)[O-].[Na+] [DMB, Sodium 2,2-dimethylbutyrate] : 71.8%

###

experiment: clinical; conditions: human, in vivo, 40 mg/kg
observation_type: half-life (h)
One number for each entry, in h.

CCC(C)(C)C(=O)[O-].[Na+] [DMB, Sodium 2,2-dimethylbutyrate] yielded half-life of 10.3

###

test: in vivo; set-up: species or system baboon; conditions: female, monkey, po, 200 mg/kg
observation_type: Tmax

The recorded Tmax for CCC(C)(C)C(=O)[O-].[Na+] [DMB, Sodium 2,2-dimethylbutyrate] is 1.5 to 2 h

###

test: clinical; conditions: human, in vivo
observation_type: Tmax

Quick note, Tmax for CCC(C)(C)C(=O)[O-].[Na+] [DMB, Sodium 2,2-dimethylbutyrate] landed at 2.5 to 3.1 h
